- target-entity: AP C3-convertase (C3bBb) (Homo sapiens (Human)) (UniProt P01024)
test-readout: AP-DAA IC50 (nM)

[[record]]
binder = "D2D3M3M4 (Multi-1) (protein) CEVPTRLNSASLKQPYITQNYFPVGTVVEYECRPGYRREPSLSPKLTCLQNLKWSTAVEFCKKKSCPNPGEIRNGQIDVPGGILFGATISFSCNTGYKLFGSTSSFCLISGSSVQWSDPLPICEKVLCTPPPKIKNGKHTFSEVEVFEYLDAVTYSCDPAPGPDPFSLIGESTIYCGDNSVWSRAAPECKVVKCRFPVVENGKQISGFGKKFYYKATVMFECDKGFYLDGSDTIVCDSNSTWDPPVPKCLKVL"
relation_qualifier = "="
numeric_result = 1.9

[[record]]
binder = "D2D3M3M4 (Multi-5) or DCP (protein) CEVPTRLNSASLKQPYITQNYFPVGTVVEYECRPGYRREPSLSPKLTCLQNLKWSTAVEFCKKKSCPNPGEIRNGQIDVPGGILFGATISFSCNTGYKLIGSTSSFCLISGSSVQWSDKLPICEKVLCTPPPKIKNGKHTFSEVEVFEYLDAVTYSCDPAPGPDPFSLIGESTIYCGDNSVWSRAAPECKVVKCRFPVVENGKQISGFGKKFYYKATVMFECDKGFYLDGSDTIVCDSNSTWDPPVPKCLKVL"
relation_qualifier = "="
numeric_result = 2.4

[[record]]
binder = "D2M2-4 (protein) CEVPTRLNSASLKQPYITQNYFPVGTVVEYECRPGYRREPSLSPKLTCLQNLKWSTAVEFCKKKSCPYIRDPLNGQAVPANGTYEFGYQMHFICNEGYYLIGEEILYCELKGSVAIWSGKPPICEKVLCTPPPKIKNGKHTFSEVEVFEYLDAVTYSCDPAPGPDPFSLIGESTIYCGDNSVWSRAAPECKVVKCRFPVVENGKQISGFGKKFYYKATVMFECDKGFYLDGSDTIVCDSNSTWDPPVPKCLKVL"
relation_qualifier = ">"
numeric_result = 10

[[record]]
binder = "D2D3M3M4 (S199K) (protein) CEVPTRLNSASLKQPYITQNYFPVGTVVEYECRPGYRREPSLSPKLTCLQNLKWSTAVEFCKKKSCPNPGEIRNGQIDVPGGILFGATISFSCNTGYKLFGKTSSFCLISGSSVQWSDPLPECREIYCTPPPKIKNGKHTFSEVEVFEYLDAVTYSCDPAPGPDPFSLIGESTIYCGDNSVWSRAAPECKVVKCRFPVVENGKQISGFGKKFYYKATVMFECDKGFYLDGSDTIVCDSNSTWDPPVPKCLKVL"
relation_qualifier = "="
numeric_result = 6.6

[[record]]
binder = "D2D3M3M4 (T192E) (protein) CEVPTRLNSASLKQPYITQNYFPVGTVVEYECRPGYRREPSLSPKLTCLQNLKWSTAVEFCKKKSCPNPGEIRNGQIDVPGGILFGATISFSCNEGYKLFGSTSSFCLISGSSVQWSDPLPECREIYCTPPPKIKNGKHTFSEVEVFEYLDAVTYSCDPAPGPDPFSLIGESTIYCGDNSVWSRAAPECKVVKCRFPVVENGKQISGFGKKFYYKATVMFECDKGFYLDGSDTIVCDSNSTWDPPVPKCLKVL"
relation_qualifier = "="
numeric_result = 2.3

